Entry source: patent US5795890A

- target desc: human polymorphonuclear elastase (HSE) (Homo sapiens, UniProt P08246)
- Sequence (P08246 30-267): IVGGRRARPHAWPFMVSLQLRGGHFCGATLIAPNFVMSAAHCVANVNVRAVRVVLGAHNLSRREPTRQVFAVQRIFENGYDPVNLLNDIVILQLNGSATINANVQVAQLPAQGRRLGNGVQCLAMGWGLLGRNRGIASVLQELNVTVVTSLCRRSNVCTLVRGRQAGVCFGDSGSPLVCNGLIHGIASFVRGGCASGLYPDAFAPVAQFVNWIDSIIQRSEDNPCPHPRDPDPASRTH
pIC50: −log10 of the molar value.
measured parameter: pIC50

Known pIC50 results, listed for orientation:
CC[C@H](C(=O)Oc1ccc(S(=O)(=O)N2CCc3cc([N+](=O)[O-])ccc32)cc1C)c1ccc(N2CCCC2)cc1 [Example 1(130)] = 7.66
CCC(C(=O)Oc1ccc(S(=O)(=O)n2c(C(=O)O)cc3ccccc32)cc1C)c1ccc(C)cc1 (racemic) [2(69)] = 7.96
CCC(C(=O)Oc1ccc(S(=O)(=O)NCC(N)=O)cc1)c1ccc(N2CCCC2)cc1 (racemic) [Example 1(56)] = 7.85
CC[C@H](C(=O)Oc1ccc(S(=O)(=O)N2CCNCC2)cc1C)c1ccc(N2CCCC2)cc1 [Example 2(276)] = 8.03
CCC(C(=O)Oc1ccc(S(=O)(=O)N2CSC[C@H]2C(=O)O)cc1)c1ccc(N2CCCC2)cc1 (stereo partly drawn) [2(77)] = 7.74

A: CCC(C(=O)Oc1ccc(S(=O)(=O)N2CCC[C@H]2C(=O)O)cc1)c1ccc(N2CCCC2)cc1 (stereo partly drawn) [Example 2(1)]
B: CC[C@H](C(=O)Oc1ccc(S(=O)(=O)NCCN2CCOCC2)cc1C)c1ccc(N2CCCC2)cc1 [Example 1(139)]
C: O=C(O)CNC(=O)c1ccccc1NS(=O)(=O)c1ccc(OC(=O)C2(c3ccc([N+](=O)[O-])cc3)CCC2)cc1 [2(179)]
Your job: order these 3 records by pIC50, ascending. Please list the labels in the order you were asked to rank them. C, B, A
(C: 7.31, B: 7.62, A: 7.92)
